Kindly supply the reported pKi values for the records listed here.
- measured on: 5-HT1A receptor (Homo sapiens)
- Sequence (P08908 whole entry): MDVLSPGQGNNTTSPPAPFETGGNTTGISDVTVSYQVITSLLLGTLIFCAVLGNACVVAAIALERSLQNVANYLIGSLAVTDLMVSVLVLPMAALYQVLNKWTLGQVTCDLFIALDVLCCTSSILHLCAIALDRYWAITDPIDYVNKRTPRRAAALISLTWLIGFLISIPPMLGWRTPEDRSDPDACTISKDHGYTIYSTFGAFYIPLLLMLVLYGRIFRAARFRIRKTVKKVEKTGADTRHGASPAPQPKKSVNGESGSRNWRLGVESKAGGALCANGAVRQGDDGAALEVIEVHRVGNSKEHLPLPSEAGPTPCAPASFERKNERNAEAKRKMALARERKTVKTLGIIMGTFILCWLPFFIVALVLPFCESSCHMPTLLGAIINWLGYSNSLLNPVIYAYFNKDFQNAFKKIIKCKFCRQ
- experimental protocol: Radioligand binding, 5-HT1A ([3H]-8-OH-DPAT displacement)
For clarity, pKi is expressed as the negative log10 of concentration in mol/L.

For the compound shown here, CN1CCN(c2nc3ccccc3c3c2ccn3S(=O)(=O)c2cccc3ccccc23)CC1 , give the reported pKi.
6.68

Check O=S(=O)(c1cccc(Cl)c1)n1ccc2c(N[C@@H]3CCNC3)nc3ccccc3c21 too.
5.57

Another compound: O=S(=O)(c1ccc(Cl)s1)n1ccc2c(N3CCN(Cc4ccccc4)CC3)nc3ccccc3c21
4.89

Try CC(C)(C)c1ccc(S(=O)(=O)n2ccc3c(NC4CCNC4)nc4ccccc4c32)cc1 (stereo not shown) next.
5.20

Request: O=S(=O)(c1cc(F)ccc1F)n1ccc2c(NC3CCNC3)nc3ccccc3c21 (stereo not shown)
5.15

Repeat for the following compound: O=S(=O)(c1ccccc1Br)n1ccc2c(N3CCNCC3)nc3ccccc3c21
5.91

Same thing, different compound: O=S(=O)(c1cccc(Cl)c1)n1ccc2c(N3CCOCC3)nc3ccccc3c21
3.34

And for O=S(=O)(c1cccc2ccccc12)n1ccc2c(NC3CCNC3)nc3ccccc3c21 (stereo not shown) ?
5.27

What about CN1CCN(c2nc3ccccc3c3c2ccn3S(=O)(=O)c2ccc(F)cc2)CC1 ?
6.82

Now try CN(C)CCNc1nc2ccccc2c2c1ccn2S(=O)(=O)c1ccccc1 .
5.73

Now try CN1CCN(c2nc3ccccc3c3c2ccn3S(=O)(=O)c2cccc(F)c2)CC1 .
6.19

Now this one: Clc1cccc(Cn2ccc3c(N4CCNCC4)nc4ccccc4c32)c1
5.49

Try O=S(=O)(c1cccc(Cl)c1)n1ccc2c(NC3CCNC3)nc3ccccc3c21 (stereo not shown) next.
5.52

Continue with O=S(=O)(c1cccc2cccnc12)n1ccc2c(N3CCCCC3)nc3ccccc3c21
4.07

Please give the result for O=S(=O)(c1ccc(C(F)(F)F)cc1)n1ccc2c(N3CCNCC3)nc3ccccc3c21 too.
6.71

Then what about the compound O=S(=O)(c1cccc2ccccc12)n1ccc2c(N3CCNCC3)nc3ccccc3c21 ?
6.15

// same read-out, input: N#Cc1cccc(S(=O)(=O)n2ccc3c(N4CCNCC4)nc4ccccc4c32)c1
6.66

How about O=S(=O)(c1cccc(Cl)c1)n1ccc2c(N[C@H]3CCNC3)nc3ccccc3c21 ?
5.63

Same for O=S(=O)(c1ccc(F)cc1)n1ccc2c(NC3CCNC3)nc3ccccc3c21 (stereo not shown)
5.23

Then this compound: O=S(=O)(c1cccc2cccnc12)n1ccc2c(N3CCN(Cc4ccccc4)CC3)nc3ccccc3c21
5.45

Same again, this time with COc1cccc(S(=O)(=O)n2ccc3c(NC4CCNC4)nc4ccccc4c32)c1 (stereo not shown)
5.29

What do we get for O=S(=O)(c1cccc2cccnc12)n1ccc2c(N3CCNCC3)nc3ccccc3c21 ?
6.04

Can you handle COc1cccc(S(=O)(=O)n2ccc3c(N4CCNCC4)nc4ccccc4c32)c1 next?
6.43

Would you kindly repeat that for Cc1ccc2sc(S(=O)(=O)n3ccc4c(NC5CCNC5)nc5ccccc5c43)cc2c1 (stereo not shown) ?
4.72

Also check CN1CCN(c2nc3ccccc3c3c2ccn3S(=O)(=O)c2ccccc2)CC1
6.90

Also O=S(=O)(c1ccccc1)n1ccc2c(N3CCN(Cc4ccccc4)CC3)nc3ccccc3c21 ?
4.48

Now consider O=S(=O)(c1cccc2cccnc12)n1ccc2c(NC3CCNC3)nc3ccccc3c21 (stereo not shown) and answer again.
4.82

Likewise for O=S(=O)(c1ccccc1)n1ccc2c(N3CCNCC3)nc3ccccc3c21 ?
6.53

Same question, O=S(=O)(c1ccc(F)cc1)n1ccc2c(N3CCNCC3)nc3ccccc3c21 this time
6.67

Try this compound too: O=S(=O)(c1cc(F)ccc1F)n1ccc2c(N3CCNCC3)nc3ccccc3c21
6.62

Here is the next compound: Cc1c(S(=O)(=O)n2ccc3c(N4CCNCC4)nc4ccccc4c32)sc2ccc(Cl)cc12
5.83

Consider next the compound CC(C)c1ccc(S(=O)(=O)n2ccc3c(N4CCNCC4)nc4ccccc4c32)cc1 in the same way.
6.83

Would you mind doing O=S(=O)(c1ccc(F)c(F)c1)n1ccc2c(N3CCNCC3)nc3ccccc3c21 as well?
6.51

O=S(=O)(c1cccc(F)c1)n1ccc2c(NC3CCNC3)nc3ccccc3c21 (stereo not shown) ?
5.52
